- subjectOfTest: human β3 adrenergic receptor (Homo sapiens)
- Construct: Full length β3 AR clones (402 amino acids) containing the last 6 amino acids of hβ3—AR are prepared
- Sequence (P13945 whole entry): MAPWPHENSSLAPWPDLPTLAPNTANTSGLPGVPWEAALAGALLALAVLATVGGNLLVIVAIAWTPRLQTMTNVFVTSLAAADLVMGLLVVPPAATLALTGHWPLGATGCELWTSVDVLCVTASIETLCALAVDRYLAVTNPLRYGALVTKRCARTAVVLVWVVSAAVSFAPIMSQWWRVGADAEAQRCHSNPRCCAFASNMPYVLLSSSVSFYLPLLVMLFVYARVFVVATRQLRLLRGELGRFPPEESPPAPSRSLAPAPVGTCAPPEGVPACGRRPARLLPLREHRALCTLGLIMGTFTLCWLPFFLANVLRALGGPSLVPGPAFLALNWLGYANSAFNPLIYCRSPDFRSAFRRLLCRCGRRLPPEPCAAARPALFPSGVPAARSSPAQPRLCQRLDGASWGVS
- assayExplanation: cAMP accumulation (SPA) in CHO cells transfected with human β3 adrenergic receptor
- conditionInfo: CHO cells expressing human β3-AR; cAMP by SPA; 30 min incubation; 10^-9M to 10^-5M
attributeMeasured: EC50 (nM)

{"compound": "Cc1ccc(-c2noc(CSc3ccc(CCNC[C@H](O)COc4cccc5[nH]nnc45)cc3)n2)cc1 [Example 33]", "EC50 [nM]": 789}
{"compound": "Cc1noc(C)c1-c1nc(CS(=O)(=O)c2ccc(CCNC[C@H](O)COc3ccc(O)cc3)cc2)no1 [Example 12]", "EC50 [nM]": 70}
{"compound": "COc1ccc(-c2nc(CS(=O)(=O)c3ccc(CCNC[C@H](O)COc4ccc(O)cc4)cc3)no2)cc1 [Example 29]", "EC50 [nM]": 33}
{"compound": "CC(C)(C)c1nc(CS(=O)(=O)c2ccc(CCNC[C@H](O)COc3ccc(O)cc3)cc2)no1 [Example 15]", "EC50 [nM]": 28}
{"compound": "[O-][S+](Cc1noc(Cc2ccccc2)n1)c1ccc(CCNC[C@H](O)COc2ccc(O)cc2)cc1 (some centres unmarked) [Example 24]", "EC50 [nM]": 431}

P = CC(C)(C)c1nc(CSc2ccc(CCNC[C@H](O)COc3ccc(O)cc3)cc2)no1 [Example 32]
Q = COc1ccc(-c2nc(CS(=O)(=O)c3ccc(CCNC[C@H](O)c4ccc(O)c(NS(C)(=O)=O)c4)cc3)no2)cc1 [Example 27]
Lowest EC50? choose P or Q Response format: the label of the selected entry.
Q
(Q: 25 nM, P: 330 nM)
